# testedSystem: PSMA-expressing C4-2 cells (Homo sapiens, UniProt Q04609)
# Construct: PSMA-expressing C4-2 cells (ATCC, Cat. No. CRL-3314) were cultured in RPMI-1640; host or cells: C4-2 cells
# Sequence (Q04609 whole entry): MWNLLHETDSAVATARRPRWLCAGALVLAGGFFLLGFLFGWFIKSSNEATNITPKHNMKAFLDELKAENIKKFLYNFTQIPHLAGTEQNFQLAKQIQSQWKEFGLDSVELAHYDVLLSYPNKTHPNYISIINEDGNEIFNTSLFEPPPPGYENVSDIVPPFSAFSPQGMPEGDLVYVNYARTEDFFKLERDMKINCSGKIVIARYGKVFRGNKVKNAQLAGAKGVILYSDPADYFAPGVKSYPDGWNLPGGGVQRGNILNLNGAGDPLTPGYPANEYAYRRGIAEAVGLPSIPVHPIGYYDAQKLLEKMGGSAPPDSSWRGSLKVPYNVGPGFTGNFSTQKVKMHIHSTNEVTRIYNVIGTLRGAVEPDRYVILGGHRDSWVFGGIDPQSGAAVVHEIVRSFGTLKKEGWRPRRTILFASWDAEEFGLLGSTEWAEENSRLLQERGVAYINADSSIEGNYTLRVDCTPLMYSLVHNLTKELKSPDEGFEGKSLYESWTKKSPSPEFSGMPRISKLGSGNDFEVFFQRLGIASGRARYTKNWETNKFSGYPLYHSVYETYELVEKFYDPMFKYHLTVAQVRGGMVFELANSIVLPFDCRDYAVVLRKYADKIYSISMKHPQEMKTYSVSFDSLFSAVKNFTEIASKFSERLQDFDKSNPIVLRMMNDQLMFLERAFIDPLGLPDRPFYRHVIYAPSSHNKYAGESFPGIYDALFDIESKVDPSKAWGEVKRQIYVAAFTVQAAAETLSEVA
# assayExplanation: FACS binding assay (competition with 50 nM PSM-0183)
# conditionLabel: pIC50 category of FACS binding, C4-2 cells; read-out: pIC50 [C4-2] CAT (converted)
Numbered stars: 1 amine (or outer) side, 2 acyl side, 3 side chain; on linkers, the order of the positions; unused ones are H or OH. Bridge positions count the residues as written; N and C are the ends. Square brackets hold non-standard residues; d marks the D form. Peptide text beside a SMILES is read from it. * marks the point of attachment. DOTA = O=C(O)CN1CCN(CC(=O)O)CCN(CC(=O)*)CCN(CC(=O)O)CC1; Lys(Me3) = C[N+](C)(C)CCCC[C@H](N)C(=O)O; Phe(4-Cl) = N[C@@H](Cc1ccc(Cl)cc1)C(=O)O; Arg(Me) = CNC(=N)NCCC[C@H](N)C(=O)O; X1 = O=C(CC1CCN([*:1])CC1)[*:2]; NMeL = CN[C@@H](CC(C)C)C(=O)O; Tle = CC(C)(C)[C@H](N)C(=O)O; Aib = CC(C)(N)C(=O)O
reportedProperty: IC50

CC(C)C[C@@H](C(=O)N[C@H](C(N)=O)[C@@H](C)O)N(C)C(=O)[C@@H]1CSSC[C@H](NC(=O)[C@H](Cc2ccc(Cl)cc2)NC(=O)C(C)(C)NC(=O)[C@@H](NC(=O)CC2CCN(C(=O)CN3CCN(CC(=O)O)CCN(CC(=O)O)CCN(CC(=O)O)CC3)CC2)[C@@H](C)O)C(=O)N[C@@H](CCCCN)C(=O)N[C@@H](CCCNC(=N)N)C(=O)NC(C)(C)C(=O)N[C@@H](CC(N)=O)C(=O)N1 [PSM-0497] ({DOTA}-[X1]T[Aib][Phe(4-Cl)]CKR[Aib]NC[NMeL]T-NH2; disulfide 5-10) :: 200 to 1260 nM

Here's the next entry for you.
Entry CNC(=N)NCCC[C@@H]1NC(=O)[C@H](CCCC[N+](C)(C)C)NC(=O)[C@@H](NC(=O)[C@H](Cc2ccc(Cl)cc2)NC(=O)C(C)(C)NC(=O)[C@@H](NC(=O)CC2CCN(C(=O)CN3CCN(CC(=O)O)CCN(CC(=O)O)CCN(CC(=O)O)CC3)CC2)[C@@H](C)O)CSSC[C@@H](C(=O)N[C@H](C(=O)N[C@H](C(N)=O)[C@@H](C)O)C(C)(C)C)NC(=O)[C@H](CC(N)=O)NC(=O)C(C)(C)NC1=O [PSM-0483] ({DOTA}-[X1]T[Aib][Phe(4-Cl)]C[Lys(Me3)][Arg(Me)][Aib]NC[Tle]T-NH2; disulfide 5-10) has what IC50?
< 200 nM

###

Listed next: entries and their corresponding IC50.
# testedSystem: PSMA-expressing C4-2 cells (Homo sapiens, UniProt Q04609)
# Construct: PSMA-expressing C4-2 cells (ATCC, Cat. No. CRL-3314) were cultured in RPMI-1640; host or cells: C4-2 cells
# assayExplanation: FACS binding assay (competition with 50 nM PSM-0183)
# conditionLabel: FACS binding, C4-2 cells, competition with 50 nM PSM-0183; category; read-out: pIC50 [C4-2] CAT (converted)
Numbered stars: 1 amine (or outer) side, 2 acyl side, 3 side chain; on linkers, the order of the positions; unused ones are H or OH. Bridge positions count the residues as written; N and C are the ends. Square brackets hold non-standard residues; d marks the D form. Peptide text beside a SMILES is read from it. * marks the point of attachment. DOTA = O=C(O)CN1CCN(CC(=O)O)CCN(CC(=O)*)CCN(CC(=O)O)CC1; Phe(4-Cl) = N[C@@H](Cc1ccc(Cl)cc1)C(=O)O; 1Nal = N[C@@H](Cc1cccc2ccccc12)C(=O)O; Ethylenediamine = C(CN[*:2])N[*:1]; X1 = O=C(CC1CCN([*:1])CC1)[*:2]; Cit = NC(=O)NCCC[C@H](N)C(=O)O; Tle = CC(C)(C)[C@H](N)C(=O)O; Aib = CC(C)(N)C(=O)O; CO = O=C([*:1])[*:2]; NHBu = CCCCN*

CC(=O)N[C@H](C(=O)NC(C)(C)C(=O)N[C@@H](Cc1cccc2ccccc12)C(=O)N[C@H]1CSSC[C@@H](C(=O)N[C@H](C(=O)N[C@H](C(=O)N[C@@H](CC(=O)O)C(N)=O)[C@@H](C)O)C(C)(C)C)NC(=O)[C@H](CC(N)=O)NC(=O)C(C)(C)NC(=O)[C@H](CCCNC(=N)N)NC(=O)[C@H](CCCCN)NC1=O)[C@@H](C)O [PSM-0249] (Ac-T[Aib][1Nal]CKR[Aib]NC[Tle]TD-NH2; disulfide 4-9) :: < 200 nM

// fetch PSMA-expressing C4-2 cells (Homo sapiens, UniProt Q04609) IC50 for C[C@@H](O)[C@H](NC(=O)CN1CCN(CC(=O)O)CCN(CC(=O)O)CCN(CC(=O)O)CC1)C(=O)NC(C)(C)C(=O)N[C@@H](Cc1ccc(Cl)cc1)C(=O)N[C@H]1CSSC[C@@H](C(=O)N[C@H](C(=O)NCCN)C(C)(C)C)NC(=O)[C@H](CC(N)=O)NC(=O)C(C)(C)NC(=O)[C@H](CCCNC(=N)N)NC(=O)[C@H](CCCCN)NC1=O [PSM-0222] ({DOTA}-T[Aib][Phe(4-Cl)]CKR[Aib]NC[Tle]-Ethylenediamine; disulfide 4-9)
< 200 nM

Which IC50 is reported with PSMA-expressing C4-2 cells (Homo sapiens, UniProt Q04609) for this entry: CCCCNC(=O)N[C@H](C(=O)NC(C)(C)C(=O)N[C@@H](Cc1ccc(Cl)cc1)C(=O)N[C@H]1CSSC[C@@H](C(=O)N[C@H](C(=O)N[C@H](C(=O)N2CCC(CC(=O)N[C@H](CCCCNC(=O)CN3CCN(CC(=O)O)CCN(CC(=O)O)CCN(CC(=O)O)CC3)C(N)=O)CC2)[C@@H](C)O)C(C)(C)C)NC(=O)[C@H](CC(N)=O)NC(=O)C(C)(C)NC(=O)[C@H](CCCNC(N)=O)NC(=O)[C@H](CCCCN)NC1=O)[C@@H](C)O [PSM-0204] ({NHBu-CO}-T[Aib][Phe(4-Cl)]CK[Cit][Aib]NC[Tle]T[X1][dK](DOTA)-NH2; disulfide 4-9) ?
< 200 nM
